Property: IC50; scope: individual molecules
- experimental.target: recombinant human GMPS (Homo sapiens (Human))
- Sequence (P49915 whole entry): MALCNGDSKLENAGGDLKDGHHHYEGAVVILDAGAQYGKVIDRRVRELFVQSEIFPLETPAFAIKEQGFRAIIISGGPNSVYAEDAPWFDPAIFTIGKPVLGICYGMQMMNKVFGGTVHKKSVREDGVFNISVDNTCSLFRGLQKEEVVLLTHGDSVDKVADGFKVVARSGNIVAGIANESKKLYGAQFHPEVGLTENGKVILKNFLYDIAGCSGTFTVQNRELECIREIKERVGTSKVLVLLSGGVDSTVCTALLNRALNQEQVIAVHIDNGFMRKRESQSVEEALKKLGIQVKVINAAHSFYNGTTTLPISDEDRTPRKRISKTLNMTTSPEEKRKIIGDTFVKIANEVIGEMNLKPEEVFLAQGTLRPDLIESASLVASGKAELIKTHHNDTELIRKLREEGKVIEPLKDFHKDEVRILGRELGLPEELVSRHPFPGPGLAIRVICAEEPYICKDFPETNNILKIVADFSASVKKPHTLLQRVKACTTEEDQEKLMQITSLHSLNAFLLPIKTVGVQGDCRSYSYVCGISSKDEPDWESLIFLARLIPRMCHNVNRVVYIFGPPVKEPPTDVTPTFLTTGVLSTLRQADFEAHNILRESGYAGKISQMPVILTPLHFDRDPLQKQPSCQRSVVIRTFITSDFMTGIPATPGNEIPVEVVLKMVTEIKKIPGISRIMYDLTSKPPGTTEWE
- assay.overview: enzymatic assay against recombinant GMPS, UV absorbance at 290 nm
- measurement.context: recombinant human GMPS

>>> df
                               smiles_entry  result
0  C#CCOc1cccc(C(=O)Nc2cccc(NC(=O)CCl)c2)c1  > 1 µM

Q. Fill in the recorded IC50 for this molecule, with recombinant human GMPS (Homo sapiens (Human)) as test system: "COc1cccc(Nc2ncnc3ccc(NC(C)=O)cc23)c1"
A. > 1 µM
